assay: Rat pharmacokinetic study after IV or PO administration; assay type: in vivo; conditions: male, Sprague-Dawley, plasma; rat, IV 2 mg/kg; read-out: Vss

{"COMPOUND": "Cc1cc(Cn2nnc3c(-c4ccco4)nc(N)nc32)ccc1N [vipadenant, Vipadenant]", "Vd / L/kg": 1.21}

###

test: Rat pharmacokinetic study after IV or PO administration; type: in vivo; conditions: male, Sprague-Dawley, plasma; rat, PO 5 mg/kg

{"MOLECULE": "Cc1cc(Cn2nnc3c(-c4ccco4)nc(N)nc32)ccc1N [vipadenant, Vipadenant]", "half-life / h": 1.93}

###

test: Rat pharmacokinetic study after IV or PO administration; type: in vivo; details: male, Sprague-Dawley, plasma; rat, IV 1 mg/kg; read-out: Vss
MEASURED QUANTITY: Vd

{"STRUCTURE STRING": "Cc1cc(Cn2nnc3c(-c4ccco4)nc(N)nc32)ccc1N", "MEASURED QUANTITY": "Vd", "VALUE MEASURED": "1.08 L/kg"}
